Values from ChEMBL document CHEMBL1133515

- experimental details: Compound was evaluated for the second order hydrolysis rate constant
- Type: ADME
Classify: Fulfilled when k2 is strictly less than 0.0001 M⁻¹ s⁻¹; Not fulfilled when k2 is not.

[
  {
    "smiles structure": "O=C1CCCCCCCN1",
    "class label": "Fulfilled"
  },
  {
    "smiles structure": "O=C1CCCCCCN1",
    "class label": "Fulfilled"
  },
  {
    "smiles structure": "O=C1CCCN1",
    "class label": "Not fulfilled"
  },
  {
    "smiles structure": "CNC(C)=O",
    "class label": "Fulfilled"
  },
  {
    "smiles structure": "O=C1CCCCCN1",
    "class label": "Fulfilled"
  },
  {
    "smiles structure": "O=C1CCN1",
    "class label": "Not fulfilled"
  },
  {
    "smiles structure": "O=C1CCCCN1",
    "class label": "Not fulfilled"
  }
]
